Tested on: E31 (patient-derived glioblastoma stem cells of proneural subtype);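 note: cell Painting imaging in 384-well plates, CellProfiler features reduced to at least 20 principal components, Euclidean distance versus same-plate DMSO vehicle wells (0.1% v/v), median over six images per well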
Experiment: phenotypic distance (Euclidean, principal components) from DMSO controls (arbitrary units); higher = stronger morphological change
Conditions: 4.1 nM; exposure time: 72 h
Counter-ions that a name gives are not always drawn.
Field: phenotypic distance. Provide a value for each of the compounds that follow.
Answers are plain numbers.

- compound: "Cc1ccc(C(=O)Nc2ccc(CN3CCN(C)CC3)c(C(F)(F)F)c2)cc1C#Cc1cnc2cccnn12"
  phenotypic distance: 0.882
- compound: "CC(C)NCC(O)c1cc(O)cc(O)c1 (stereo unspecified) [Metaproterenol sulfate, orciprenaline sulfate]"
  phenotypic distance: 0.663
- compound: "Oc1ccc(OCc2ccccc2)cc1"
  phenotypic distance: 0.6
- compound: "CCC(C)n1ncn(-c2ccc(N3CCN(c4ccc(OCC5COC(Cn6cncn6)(c6ccc(Cl)cc6Cl)O5)cc4)CC3)cc2)c1=O (stereo unspecified)"
  phenotypic distance: 0.564
- compound: "CCCSc1ccc2[nH]c(NC(=O)OC)nc2c1"
  phenotypic distance: 0.384

Dear colleague, could you please provide phenotypic distance for the compounds listed below?
1. O=C(Nc1ccc([N+](=O)[O-])cc1Cl)c1cc(Cl)ccc1O [Niclosamide]
2. CC(=O)CC(c1ccc([N+](=O)[O-])cc1)c1c(O)c2ccccc2oc1=O (stereo unspecified)
3. Cc1ccc(S(=O)(=O)/C=C/C#N)cc1
4. Cn1ncnc1[C@H]1c2n[nH]c(=O)c3cc(F)cc(c23)N[C@@H]1c1ccc(F)cc1
5. Clc1ccc(COC(Cn2ccnc2)c2ccc(Cl)cc2Cl)c(Cl)c1 (stereo unspecified)
6. C[C@@H]1CN([C@H]2CC[C@](C#N)(c3ccc(F)cc3)CC2)CC[C@]1(C(=O)O)c1ccccc1 [Levocabastine hydrochloride]
7. COc1ccc([C@@H]2CC(=O)c3c(O)cc(O[C@@H]4O[C@H](CO[C@@H]5O[C@@H](C)[C@H](O)[C@@H](O)[C@H]5O)[C@@H](O)[C@H](O)[C@H]4O)cc3O2)cc1O

1: 3.09; 2: 0.829; 3: 0.798; 4: 1.5; 5: 0.925; 6: 0.412; 7: 0.45

List phenotypic distance for every entry below, keeping the order given.
1. Clc1ccc(CSC(Cn2ccnc2)c2ccc(Cl)cc2Cl)cc1 (stereo unspecified) [Sulconazole nitrate]
2. Nc1ncnc2c1c(-c1ccc(Oc3ccccc3)cc1)cn2C1CCCC1
3. COc1cc2ncnc(Nc3cccc(Br)c3)c2cc1OC
4. CC(C)C[C@H]1C(=O)N2CCC[C@H]2[C@]2(O)O[C@](NC(=O)[C@@H]3C=C4c5cccc6[nH]c(Br)c(c56)C[C@H]4N(C)C3)(C(C)C)C(=O)N12 [Bromocryptine mesylate]

1. 0.532
2. 0.613
3. 0.794
4. 0.381
